- assay.explanation: MMV: MTT Cytotoxicity Assay Day 7 pi of Assay #7 (compound washed out Day 1 pi), U87-CD4-CXCR4 cells, % cell death @ 5mM compound
- Assay type: toxicity, cell-based
- setup.conditions: human, u87-cd4-cxcr4, 5000 µM
compounds and their reported % Cell Death
measurement.name: % Cell Death

{"compound": "CCOC(=O)c1c(NC(=O)c2ccccc2)sc2c(O)c(CN(CC)CC)ccc12", "reported.value": 40}
{"compound": "COc1ccccc1C(=O)ON=C(N)Cc1cccc2ccccc12", "reported.value": 42}
{"compound": "CC(C)(C)C(=O)Nc1ccc(C(=O)Nc2cccc(-c3nc4ccccc4[nH]3)c2)cc1", "reported.value": -22}
{"compound": "CCOc1ccc2nc(C)cc(Nc3ccc(N(C)C)cc3)c2c1.Cl", "reported.value": 4}
{"compound": "Cc1cc(NC(=O)c2ccc(-c3ccccc3)cc2)no1", "reported.value": -27}
{"compound": "O=C(NC1CCN(Cc2ccccc2)CC1)c1cc(C(=O)NC2CCN(Cc3ccccc3)CC2)cc(C(=O)NC2CCN(Cc3ccccc3)CC2)c1", "reported.value": 72}
{"compound": "COc1ccc(C)c2sc(N(Cc3cccnc3)C(=O)c3ccc(C#N)cc3)nc12", "reported.value": -6}
{"compound": "CCC1(C)CC(CCNCc2ccccc2O)(c2ccc(C)cc2)CCO1 (configuration not stated)", "reported.value": 0}
{"compound": "Cc1ccccc1OCCSc1nc2ccc(NC(=O)c3ccccc3)cc2s1", "reported.value": 1}
{"compound": "CC(Oc1ccc(NC(=O)c2cccs2)cc1)C(=O)c1ccc(Cl)cc1 (configuration not stated)", "reported.value": 60}
{"compound": "COc1cccc(C(=O)NC(c2ccc(C)cc2)c2cc(Cl)c3cccnc3c2O)c1 (configuration not stated)", "reported.value": -4}
{"compound": "O=C1c2ccccc2C2=Nc3ccccc3SC(c3cccc(F)c3)C12 (configuration not stated)", "reported.value": 28}
{"compound": "CC(C)(C)c1ccc(O)c(CNC2CCCCC2)c1", "reported.value": 96}
{"compound": "CC(C)(C)CC(C)(C)NCC(O)COc1ccc2c(c1)CCC2.Cl (configuration not stated)", "reported.value": -11}
{"compound": "CN(C)c1ccc(C(O)(c2ccc(N(C)C)cc2)c2ccc(N(C)C)cc2)cc1", "reported.value": -2}
{"compound": "CCCCc1c(CCC)c(=N)c2ccccc2n1C.I", "reported.value": 55}
{"compound": "O=C1c2ccccc2-c2nnc(-c3ccc(Br)cc3)cc21", "reported.value": 4}
{"compound": "COc1ccc(C2c3ccc4ccccc4c3Oc3ncn(CCCN(C)C)c(=N)c32)cc1 (configuration not stated)", "reported.value": -12}
{"compound": "CC1CC(C)CN(C(=O)c2ccc(Cl)cc2Cl)C1 (configuration not stated)", "reported.value": -16}
{"compound": "COc1ccc(CCn2c(=N)c(C(=O)NCc3cccnc3)cc3c(=O)n4cccc(C)c4nc32)cc1", "reported.value": 35}
{"compound": "O=C(NCCCN1CCC(N2CCCCC2)CC1)C1=Cc2cc(Br)ccc2OC1", "reported.value": -28}
{"compound": "COc1ccc(C(=O)C2CC2c2ccc(Cl)cc2)cc1 (configuration not stated)", "reported.value": 66}
{"compound": "CC(C)OCc1cc(CN2CCN(c3cccc(Cl)c3)CC2)c(O)c2ncccc12", "reported.value": -12}
{"compound": "O=C(Nc1ccccc1O)c1ccc(Oc2cccc(C(=O)Nc3ccccc3O)c2)cc1", "reported.value": -12}
{"compound": "CCOc1cc(Br)c(C(C)NC(=O)c2cccc(OC)c2)cc1OCC (configuration not stated)", "reported.value": 11}
{"compound": "Cc1cc(Nc2cccc(F)c2)nc(NCc2ccccc2)n1", "reported.value": -12}
{"compound": "Nc1ccc(-c2nc3cc(Cc4ccc5[nH]c(-c6ccc(N)cc6)nc5c4)ccc3[nH]2)cc1", "reported.value": 82}
{"compound": "CCN1CCCC1CNc1[nH]cnc2c3cc(Cl)ccc3nc1-2 (configuration not stated)", "reported.value": -7}
{"compound": "CCOc1c(Cl)cc(CNC(C)C(O)c2ccccc2)cc1OC (configuration not stated)", "reported.value": -15}
{"compound": "CCOC(=O)C1=C(C)N=c2sc(=Cc3ccccc3O)c(=O)n2C1c1ccc(OC)c2ccccc12 (configuration not stated)", "reported.value": 66}
{"compound": "COc1cc2c3cc1Oc1c(OC)c(OC)cc4c1C(Cc1ccc(O)c(c1)Oc1ccc(cc1)CC3N(C)CC2)N(C)CC4.Cl (configuration not stated)", "reported.value": 32}
{"compound": "Cc1ccccc1OCCSc1nc2ccc(NC(=O)c3cccs3)cc2s1", "reported.value": 81}
{"compound": "CSC1=NC(=Nc2c(C)cccc2C)C2(CCC(C(C)(C)C)CC2)N1c1ccc(Cl)cc1 (configuration not stated)", "reported.value": -6}
{"compound": "FC(F)(F)c1cccc(Nc2nc(-c3ccccc3)nc3ncccc23)c1", "reported.value": 15}
{"compound": "CC(C)CCNCC(O)Cn1c2ccccc2c2ccccc21.Cl (configuration not stated)", "reported.value": -6}
{"compound": "COc1ccc(-c2nonc2NC(=O)c2cccc(C)c2)cc1OC", "reported.value": -11}
{"compound": "CCn1c(SCC(=O)Nc2cc(C(F)(F)F)ccc2Cl)nc2ccccc2c1=O", "reported.value": -27}
{"compound": "CCCC(c1nnnn1C1CCCCC1)N1CCN(C(=O)c2ccco2)CC1.Cl (configuration not stated)", "reported.value": -21}
{"compound": "CCCCCCn1c(=N)n(CC(O)COc2cccc(C)c2)c2ccccc21.Cl (configuration not stated)", "reported.value": -16}
{"compound": "COc1ccccc1NC1=C(N2CCCCC2)C(=O)c2ccccc2C1=O", "reported.value": 8}
{"compound": "Cc1ccc(-c2nc3ccccc3o2)cc1NCc1cc(Cc2ccccc2)ccc1O", "reported.value": -11}
{"compound": "Cc1cc(C=C2SC(=Nc3ccccc3)N(C3CCCC3)C2=O)c(C)n1-c1ccc(Cl)cc1", "reported.value": 36}

Recorded values, source ChEMBL document CHEMBL3301472.
